# tested-system: P2Y purinoceptor 12 (Homo sapiens)
# Sequence (Q9H244 whole entry): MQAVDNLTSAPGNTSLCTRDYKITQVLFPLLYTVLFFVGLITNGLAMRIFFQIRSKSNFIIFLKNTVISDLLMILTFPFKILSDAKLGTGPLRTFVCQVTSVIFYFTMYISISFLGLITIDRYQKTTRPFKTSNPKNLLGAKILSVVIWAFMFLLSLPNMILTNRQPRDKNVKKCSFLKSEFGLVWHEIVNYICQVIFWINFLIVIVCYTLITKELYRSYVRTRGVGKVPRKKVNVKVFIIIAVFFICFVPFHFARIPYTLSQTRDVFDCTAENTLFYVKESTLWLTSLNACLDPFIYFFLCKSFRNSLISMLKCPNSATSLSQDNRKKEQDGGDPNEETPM
# test-summary: Displacement of [33P]2-MeS-ADP from human recombinant P2Y12 receptor expressed in CHO cell membranes by scintillation counting method
observable: pKi
Quick note: pKi values are minus log10 of concentrations in mol/L.

Query pKi for CCOC(=O)N1CCN(C(=O)[C@H](CCC(=O)O)NC(=O)c2cc(OCC(=O)N3CCC[C@H]3c3ccccc3)n(-c3ccccc3)n2)CC1 7.48

// Input: CCOC(=O)N1CCN(C(=O)[C@H](CCC(=O)O)NC(=O)c2cc(OCC(N)=O)n(-c3ccccc3)n2)CC1 . Output its pKi only. 5.57

Answer with reported pKi of CCOC(=O)N1CCN(C(=O)[C@H](CCC(=O)O)NC(=O)c2cc(OCC(=O)N3CC(C(=O)NC4CCC4)C3)n(-c3ccccc3)n2)CC1 6.21

Supply recorded pKi for CCOC(=O)N1CCN(C(=O)[C@H](CCC(=O)O)NC(=O)c2cc(OC3(C(=O)OCC)CCC3)n(-c3ccccc3)n2)CC1 here. 6.86

* * *

Items are presented alongside their recorded log10(Ki).
# tested-system: P2Y purinoceptor 12 (Homo sapiens)
# test-summary: Displacement of [33P]2-MeS-ADP from human recombinant P2Y12 receptor expressed in CHO cell membranes by scintillation counting method
All values: log10 Ki [nM].

CCCCOC(=O)NC1CCN(C(=O)[C@H](CCC(=O)O)NC(=O)c2cc(OCC(=O)N3CCC[C@H]3C(=O)NC3CCC3)n(-c3ccccc3)n2)C1 (stereo partly drawn)    1.91
CCOC(=O)N1CCN(C(=O)[C@H](CCC(=O)O)NC(=O)c2cc(OCC(=O)N3CCC[C@H]3C(=O)NC3CCC3)n(-c3ccccc3)n2)[C@@H](C)C1    1.73
CCOC(=O)N1CCN(C(=O)[C@H](CCC(=O)O)NC(=O)c2cc(OCC(=O)N3CCC[C@@H]3C(=O)NC3CC3)n(-c3ccccc3)n2)CC1    2.98
CCOC(=O)N1CCN(C(=O)[C@H](CCC(=O)O)NC(=O)c2cc(OCC(=O)N3CCC[C@H]3C(=O)NC3CC3)n(-c3ccccc3)n2)CC1    2.02

Annotate the molecule CCCCOC(=O)NC1CCN(C(=O)[C@H](CCC(=O)O)NC(=O)c2cc(OCC(=O)N3CCC[C@H]3C(=O)NC3CCC3)n(-c3ccccc3)n2)CC1 with its measured log10(Ki). 1.34

Name the recorded log10(Ki) of the molecule listed here: CCOC(=O)N1CCN(C(=O)[C@H](CCC(=O)O)NC(=O)c2cc(OCC(=O)N3CCC[C@H]3C(=O)NC(C)(C)C)n(-c3ccccc3)n2)CC1 1.61

For the molecule CCCNC(=O)[C@@H]1CCCN1C(=O)COc1cc(C(=O)N[C@@H](CCC(=O)O)C(=O)N2CCN(C(=O)OCC)CC2)nn1-c1ccccc1 , report log10(Ki). 1.82

* * *

# tested-system: P2Y purinoceptor 12 (Homo sapiens)
# test-summary: Displacement of [33P]2-MeS-ADP from human recombinant P2Y12 receptor expressed in CHO cell membranes by scintillation counting method
Catalogue of Ki readings, one per entry.
Give the value, in units of nM, as a plain number.

Guide cases for Ki, answers given:
CCOC(=O)N1CCN(C(=O)[C@H](CNS(C)(=O)=O)NC(=O)c2cc(OCC(=O)N3CCC[C@H]3C(=O)NC3CCC3)n(-c3ccccc3)n2)CC1    48
CCOC(=O)N1CCN(C(=O)[C@H](CCC(=O)O)NC(=O)c2cc(OCC(=O)N3CCC[C@H]3C(=O)NC3CCC3)n(-c3ccccc3)n2)C[C@H]1C    51
COc1cccc(N2CCN(C(=O)[C@H](CCC(=O)O)NC(=O)c3cc(OCC(=O)N4CCC[C@H]4C(=O)NC4CCC4)n(-c4ccccc4)n3)CC2)c1    30
CCOC(=O)N1CCN(C(=O)[C@H](CCC(=O)O)NC(=O)c2cc(OCC(=O)C3CCC3)n(-c3ccccc3)n2)CC1    574
CCOC(=O)N1CCN(C(=O)[C@H](CCNS(C)(=O)=O)NC(=O)c2cc(OCC(=O)N3CCC[C@H]3C(=O)NC3CCC3)n(-c3ccccc3)n2)CC1    23
CCOC(=O)N1CCN(C(=O)[C@H](CCC(=O)O)NC(=O)c2cc(OCC(=O)N3CCC[C@H]3C(=O)N(C)C3CCC3)n(-c3ccccc3)n2)CC1    27
CCOC(=O)N1CCN(C(=O)[C@H](CCC(=O)O)NC(=O)c2cc(OC(C)(C)C(=O)OCC)c3ccc(C)cc3n2)CC1    86
CCCSc1nc(N[C@@H]2C[C@H]2c2ccc(F)c(F)c2)c2nnn([C@@H]3C[C@H](OCCO)[C@@H](O)[C@H]3O)c2n1 [TICAGRELOR]    14

# return recorded Ki for input CCOC(=O)N1CCN(C(=O)[C@H](CCC(=O)O)NC(=O)c2cc(OCC(=O)N3CCC[C@H]3C(=O)NC)n(-c3ccccc3)n2)CC1 536

Determine from records and report Ki for CCOC(=O)N1CCN(C(=O)[C@H](CCN)NC(=O)c2cc(OCC(=O)N3CCC[C@H]3C(=O)NC3CCC3)n(-c3ccccc3)n2)CC1 180

Answer with the recorded Ki of CCCCOC(=O)N1CCC(NC(=O)[C@H](CCC(=O)O)NC(=O)c2cc(OCC(=O)N3CCC[C@H]3C(=O)NC3CCC3)n(-c3ccccc3)n2)C1 (stereo partly specified) only. 193

Fill in Ki for record CCOC(=O)N1CCN(C(=O)[C@H](CCC(=O)O)NC(=O)c2cc(OCC(=O)N3CCC[C@H]3C(=O)N3CCCCC3)n(-c3ccccc3)n2)CC1 56
